molecular target: human glucagon receptor (human, UniProt P47871 26-477); assay: cell-based or functional assay
Starred links: 1 amine or outer side, 2 acyl side, 3 side chain; linkers in the order of their positions; H or OH if unused. Non-standard residues stand in square brackets, D forms with d. No end group written: not given here. *: point of attachment. ACPP = 2-amino-5-(3-chlorophenyl)pentanoic acid, O=C([C@H](CCCc1cccc(Cl)c1)N[*:1])[*:2]; 2F,4CF3‑APPA = 2-amino-5-(2-fluoro-4-(trifluoromethyl)phenyl)pentanoic acid; Bip(2'-Et-4'-OMe) = CCc1cc(OC)ccc1-c1ccc(C[C@H](N)C(=O)O)cc1; Nva(5-(3,5-Me2Ph)) = Cc1cc(C)cc(CCC[C@H](N)C(=O)O)c1; αMePhe(2-F) = C[C@](N)(Cc1ccccc1F)C(=O)O; NMeBip(OMe) = N-methylated Bip(OMe); hhPhe = N[C@@H](CCCc1ccccc1)C(=O)O; aThr = C[C@H](O)[C@H](N)C(=O)O; αMeP = C[C@@]1(C(=O)O)CCCN1; NMeAPPA = not defined here; CNB = not defined here; Ac3c = NC1(C(=O)O)CC1; Aib = CC(C)(N)C(=O)O; Moc = COC(=O)*
Would you mind telling me the reported inhibition of cAMP production, 100 nM of each entry?
Give bare numbers, in pmol/ml/µg prt.

Example binders with recorded inhibition of cAMP production, 100 nM:
HSQGTFTSD[Bip(2'-Et-4'-OMe)][2F,4CF3‑APPA] [Seq. ID. No. 49: HSQGTFTSD-Bip(OMe)-(2F, 4CF3-APPA)]    6
Moc-H[Aib][CNB]GT[αMePhe(2-F)]TSD[Bip(2'-Et-4'-OMe)][hhPhe] (reading uncertain) [Seq. ID. No. 206: CH3OCO-H-Aib-(CNB)-GT-(α-Me-2F-Phe)-TSD-Bip(OMe)-(APPA)]    0

For each listed entry, give its inhibition of cAMP production, 100 nM.
1. H[αMeP]QGTFTSD[Bip(2'-Et-4'-OMe)][ACPP] [Seq. ID. No. 11: H-(α-Me-Pro)-QGTFTSD-Bip(OMe)-(ACPP)]
2. H[Ac3c]QGTFTSD[Bip(2'-Et-4'-OMe)][Nva(5-(3,5-Me2Ph))] [Seq. ID. No. 22: H-(ACP)-QGTFTSD-Bip(OMe)-(ADMP)]
3. H[Aib][CNB]G[aThr][αMePhe(2-F)][aThr]SD[NMeBip(OMe)][NMeAPPA] (reading uncertain) [Seq. ID. No. 142: H-Aib-(CNB)-G-T(allo)-(α-Me-2F-Phe)-T(allo)-SD-((NMe)Bip(OMe))-((NMe)(APPA))]

Solution:
1. 0
2. 12
3. 6
